# PROTOCOL_DETAILS: recombinant UMI read abundance after kanamycin selection (control-corrected) (log10(CPM+1)); higher = more efficient recombination; extreme values may be limits of the assay; sequences stand for … in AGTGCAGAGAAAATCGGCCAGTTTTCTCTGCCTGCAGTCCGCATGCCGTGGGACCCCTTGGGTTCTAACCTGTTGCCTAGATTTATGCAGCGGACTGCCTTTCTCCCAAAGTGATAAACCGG…AGGTTGGTTTCACT; site = the 11-nt donor;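 also: IS621 bridge recombinase in Escherichia coli cells against a fixed T5 target plasmid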
ENDPOINT_LABEL: recombinant UMI read abundance (log10)
One number for each entry.

Please review the following examples before continuing.
> print(dat)
                             query.sequence                          endpoint.label  assay.result
1  AGCGTAGCATGGACCGGTTTTCCCGGTAATCCGTATTTGTT (site AGCGTAGCTAA)  recombinant UMI read abundance (log10)          1.33
2  GTAGTCCCATGGACCGGTTTTCCCGGTAATCCGTATTTGCG (site GTAGTCTCTCG)  recombinant UMI read abundance (log10)          2.33
3  CGATCGACATGGACCGGTTTTCCCGGTAATCCGTATTTGTC (site CGATCGACTAA)  recombinant UMI read abundance (log10)       0.00466
4  GGGGCACCATGGACCGGTTTTCCCGGTAATCCGTATTTGTA (site GGGGCACCTTT)  recombinant UMI read abundance (log10)        0.0754
5  AGCGTAACATGGACCGGTTTTCCCGGTAATCCGTATTTGAC (site AGCGTAACTGT)  recombinant UMI read abundance (log10)          2.86
6  GGAGTGGCATGGACCGGTTTTCCCGGTAATCCGTATTTGGT (site GGAGTAGCTAC)  recombinant UMI read abundance (log10)         0.606

Can you give me recombinant UMI read abundance (log10) for all of these, one by one?
1. CCAGGTGCATGGACCGGTTTTCCCGGTAATCCGTATTTGGT (site CCAGGTGCTAC)
2. TACTTGACATGGACCGGTTTTCCCGGTAATCCGTATTTGCT (site GACTTGACTAG)
3. CAAGCGCCATGGACCGGTTTTCCCGGTAATCCGTATTTGTA (site CAAGCGCCTTA)
4. CGCGGCACATGGACCGGTTTTCCCGGTAATCCGTATTTGTA (site CGCGGCACTTA)

1. 0.188
2. 0.00311
3. 1.49
4. 1.66

Required: recombinant UMI read abundance (log10), one value per sequence below.
1. AGCCTTGCATGGACCGGTTTTCCCGGTAATCCGTATTTGTT (site AGCCTGGCTAA)
2. CCAACGGCATGGACCGGTTTTCCCGGTAATCCGTATTTGCG (site CCAACGGCTCG)
3. AGTTATGCATGGACCGGTTTTCCCGGTAATCCGTATTTGGA (site AATTATGCTTC)
4. ACCGAATCATGGACCGGTTTTCCCGGTAATCCGTATTTGCA (site ACAGTATCTTG)
5. AGCATAGCATGGACCGGTTTTCCCGGTAATCCGTATTTGTT (site AGCTTAGCTAA)
6. ACAGTATCATGGACCGGTTTTCCCGGTAATCCGTATTTGGA (site ACAGTATCTTT)

1: 0.0183; 2: 1.52; 3: 0.159; 4: 0; 5: 0.00966; 6: 2.61

Please state, for each entry, its recorded recombinant UMI read abundance (log10).
1. CACTTCTCATGGACCGGTTTTCCCGGTAATCCGTATTTGCC (site CACTCCTCTGG)
2. GAGCACGCATGGACCGGTTTTCCCGGTAATCCGTATTTGGG (site AAGCACGCTCC)
3. GCTCGATCATGGACCGGTTTTCCCGGTAATCCGTATTTGGA (site GCTCGATCTTC)
4. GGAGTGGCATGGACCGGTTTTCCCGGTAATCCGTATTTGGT (site GGAGTGGCTCC)

1: 1.41; 2: 0.0191; 3: 1.99; 4: 0.0114

Look up recombinant UMI read abundance (log10) for the entries below, preserving their order.
1. ATTGAGACATGGACCGGTTTTCCCGGTAATCCGTATTTGGA (site ATTGAGACTCC)
2. AGGACTTCATGGACCGGTTTTCCCGGTAATCCGTATTTGAC (site AGGACTGCTGT)

[0.663, 0]

====

# PROTOCOL_DETAILS: recombinant UMI read abundance after kanamycin selection (control-corrected) (log10(CPM+1)); higher = more efficient recombination; extreme values may be limits of the assay; sequences stand for … in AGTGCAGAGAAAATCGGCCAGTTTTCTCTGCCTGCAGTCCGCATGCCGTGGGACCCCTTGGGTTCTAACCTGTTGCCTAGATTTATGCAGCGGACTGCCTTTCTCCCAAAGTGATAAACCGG…AGGTTGGTTTCACT; site = the 11-nt donor
ENDPOINT_LABEL: recombinant UMI read abundance (log10)

> print(dat)
                             query.sequence  assay.result
1  TCTTATACATGGACCGGTTTTCCCGGTAATCCGTATTTGCT (site TCTTATACTAG)       0.00302
2  AGGGAACCATGGACCGGTTTTCCCGGTAATCCGTATTTGAT (site GGGGAACCTAT)             0
3  GACAAACCATGGACCGGTTTTCCCGGTAATCCGTATTTGGA (site GACAAACCTAC)        0.0269
4  TTTGCGGCATGGACCGGTTTTCCCGGTAATCCGTATTTGCT (site TTTGCGCCTAG)       0.00251
5  AATTTACCATGGACCGGTTTTCCCGGTAATCCGTATTTGGC (site AATTTACCTGC)             0

List the reported recombinant UMI read abundance (log10) of each sequence below.
1. CCTGACACATGGACCGGTTTTCCCGGTAATCCGTATTTGTC (site CCTGACACTGA)
2. AGTAGGTCATGGACCGGTTTTCCCGGTAATCCGTATTTGAA (site AGTAGGTCTTT)
3. TTGTCTACATGGACCGGTTTTCCCGGTAATCCGTATTTGCG (site TTGTCTACTCG)

1: 0; 2: 1.07; 3: 0.0108

Batch of 4 sequences: report recombinant UMI read abundance (log10) for each.
1. CTAGCATCATGGACCGGTTTTCCCGGTAATCCGTATTTGAC (site CTAGTATCTGT)
2. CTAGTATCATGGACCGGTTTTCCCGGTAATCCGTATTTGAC (site CGAGTATCTAT)
3. TTAGCTGCATGGACCGGTTTTCCCGGTAATCCGTATTTGTG (site TAAGCTGCTCA)
4. AGGAAGTCATGGACCGGTTTTCCCGGTAATCCGTATTTGTC (site AGGAAGTCTGA)

1. 2.13
2. 0
3. 0.00653
4. 3.14

Quick one: give me recombinant UMI read abundance (log10) for each item below, same order please.
1. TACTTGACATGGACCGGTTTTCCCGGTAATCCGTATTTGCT (site TACTCGACTAG)
2. CTGTTTACATGGACCGGTTTTCCCGGTAATCCGTATTTGCT (site CCGTTTACTAG)
3. TATGTAACATGGACCGGTTTTCCCGGTAATCCGTATTTGCT (site AATGTAACTAG)
4. ATCTATACATGGACCGGTTTTCCCGGTAATCCGTATTTGAC (site ATCTATACTAT)

0.277
1.15
0.864
0.00827

Okay, here is my list. What is recombinant UMI read abundance (log10) for each of these?
1. ATTCACGCATGGACCGGTTTTCCCGGTAATCCGTATTTGCA (site ATTCACGCTTG)
2. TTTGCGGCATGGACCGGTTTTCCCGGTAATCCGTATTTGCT (site TATGCGGCTAG)

1. 2.42
2. 0.00481

====

# PROTOCOL_DETAILS: recombinant UMI read abundance after kanamycin selection (control-corrected) (log10(CPM+1)); higher = more efficient recombination; extreme values may be limits of the assay; sequences stand for … in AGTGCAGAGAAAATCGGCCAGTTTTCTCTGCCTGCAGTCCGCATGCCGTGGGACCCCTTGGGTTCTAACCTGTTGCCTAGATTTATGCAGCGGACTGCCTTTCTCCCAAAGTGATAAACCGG…AGGTTGGTTTCACT; site = the 11-nt donor
ENDPOINT_LABEL: recombinant UMI read abundance (log10)
One number for each entry.

Use the examples below as a reference point.
> print(dat)
                             query.sequence  assay.result
1  TCAGAGACATGGACCGGTTTTCCCGGTAATCCGTATTTGCG (site TTAGAGACTCG)          1.56
2  CCCCTATCATGGACCGGTTTTCCCGGTAATCCGTATTTGTC (site CCCATATCTGA)             0
3  CTTCTAACATGGACCGGTTTTCCCGGTAATCCGTATTTGCG (site CTTCTAACTCG)         0.213

Would you mind giving recombinant UMI read abundance (log10) for every sequence in the list below?
1. CAATCAGCATGGACCGGTTTTCCCGGTAATCCGTATTTGCT (site CAAGCAGCTAG)
2. TCTAAAGCATGGACCGGTTTTCCCGGTAATCCGTATTTGAT (site ACTAAAGCTAT)
3. GTTGTTCCATGGACCGGTTTTCCCGGTAATCCGTATTTGGT (site ATTGTTCCTAC)
4. AATGTGTCATGGACCGGTTTTCCCGGTAATCCGTATTTGCC (site AATGTGTCTGA)
5. TGGCTGGCATGGACCGGTTTTCCCGGTAATCCGTATTTGGC (site TGGCCGGCTGC)
6. GCCAAGCCATGGACCGGTTTTCCCGGTAATCCGTATTTGTA (site GCCAAGCCTTA)

0.0241
0
0.0121
0
0
1.69
